These entries and their values trace back to paper PMC9482650.

# Subject of test: DLG1_2, Q12959
# Sequence (Q12959 314-412): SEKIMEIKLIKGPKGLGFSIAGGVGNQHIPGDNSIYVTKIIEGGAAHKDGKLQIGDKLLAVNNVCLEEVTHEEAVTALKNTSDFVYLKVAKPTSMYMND
# Procedure details: holdup assay
# Parameters: key: below the threshold = too weak to quantify, mostly under pKd 3.1 to 4
# Conditions: plain residues with an end cap or a label only (N-terminal biotin on a linker: ahx)
Observation type: pKd

TEAKLTETNA [MYO18A, Q92614]	below the threshold
TESNLQTSSC [CGN, Q9P2M7]	below the threshold
EKQAKGDTEF [CACYBP, Q9HB71]	below the threshold
